Below, each of the sequences is paired with its reported protein stability index value.
- experiment-notes: protein stability index of a GFP-peptide fusion (yeast GPS) (PSI 1-4); higher = more stable; sorted into four equal gates, so the index is relative within each strain
- measurement-parameters: pdr5∆
Reply with the value as a number alone.

> print(dat)
               item.sequence  observed.measurement
1  DENAPVATNANATTDQE [PRE10]                  3.33
2  NVSENQPWQMDTNNEAD [SNF12]                  3.26
3   TVAVMSYSGYDIEDALV [RET1]                  2.15

Memo: SVPEGTIVSNVEEKPGD [RPL2A] , reported protein stability index: 3.02

Memo: SYDCTGVNELAPIPKGR [POP1] , reported protein stability index: 2.79

* * *

Below, each of the sequences is paired with its reported protein stability index value.
- experiment-notes: protein stability index of a GFP-peptide fusion (yeast GPS) (PSI 1-4); higher = more stable; sorted into four equal gates, so the index is relative within each strain
- measurement-parameters: pdr5∆
Reply with the value as a number alone.

Worked examples, 2 sequences total:
> print(dat)
               item.sequence  observed.measurement
1  RDIEKITSLYALIRRDF [CDC53]                  1.89
2  MPDEFNTLYTAIITDDL [SRP72]                   2.5

Memo: TESPLKTVDSSIQPIES [SSN2] , reported protein stability index: 2.93

Memo: VGKQIVNIPSFMVRLDS [RPS9A] , reported protein stability index: 2.69

Memo: KDSYINANTIETAKMIE [FAS2] , reported protein stability index: 3.07

Memo: EKSRISERDSKDRYING [YMR129W/POM152] , reported protein stability index: 3.08

Memo: LGKRSILAAAHRDAYSG [PRE2] , reported protein stability index: 3.26

Memo: MQGKITKVLNMKPSEIL [SMC2] , reported protein stability index: 2.88

Memo: VKEESQPDENTKEMDEV [SWI3] , reported protein stability index: 2.81

Memo: EILGINLANEQPVLEKP [SIR4] , reported protein stability index: 3.2

Memo: KSAVSHAPAYHRSKKDQ [IRR1] , reported protein stability index: 2.79

Memo: WIVVLPWFWLLPLWHLL [POP1] , reported protein stability index: 1.21

Memo: NRGVKLEIVYGYALRDV [RPP1] , reported protein stability index: 2.64

Memo: GRPETYIWRYLPAPPVC [RPO31] , reported protein stability index: 1.57

Memo: ENYSAMIFETIVDGKLK [FAS1] , reported protein stability index: 3.24

Memo: SPLYMDTETFDTVNSAL [YML103C/NUP188] , reported protein stability index: 3.27

* * *

Below, each of the sequences is paired with its reported protein stability index value.
- experiment-notes: protein stability index of a GFP-peptide fusion (yeast GPS) (PSI 1-4); higher = more stable; sorted into four equal gates, so the index is relative within each strain
- measurement-parameters: doa10∆
Reply with the value as a number alone.

Worked examples, 2 sequences total:
> print(dat)
               item.sequence        measured.endpoint  observed.measurement
1  TLDRNTAAETFKLFNKY [RPL8A]  protein stability index                  3.03
2  AVLSYYKVDAEGKVTKL [RPS31]  protein stability index                  2.98

# next sequence below
Memo: LQDELHKVSSQSTNLNR [YCS4] , reported protein stability index: 2.97
